ASSAYED_TARGET: T1, native calprotectin derived from granulocytes (human, UniProt P05109 1-93; P06702 1-114)
T1 construct: S100A8 (Mrp-8), human, native; S100A9 (Mrp-14), human, native; Tetramer with calcium, dimer with 1 mM EDTA; also called S100A8/S100A9; Mrp-8/Mrp-14; source: also native in human serum samples; copies: 2 + 2
T1 sequence (looked up) 1: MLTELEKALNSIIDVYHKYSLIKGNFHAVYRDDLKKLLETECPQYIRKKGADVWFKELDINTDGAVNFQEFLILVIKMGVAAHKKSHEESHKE
T1 sequence (looked up) 2: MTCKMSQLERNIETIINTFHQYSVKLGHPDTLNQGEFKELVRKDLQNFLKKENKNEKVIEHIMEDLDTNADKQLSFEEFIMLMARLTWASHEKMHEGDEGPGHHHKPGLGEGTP
TEST: fluorescence polarisation; calprotectin serially diluted, fluorescent peptide at 20 nM; 20 mM HEPES, 100 mM NaCl, 2 mM CaCl2, pH 7.5, 1 mM DTT, 0.01% Tween-20; tetrameric calprotectin; Kd calculated on the concentration of the heterodimer (1:1 heterodimer:peptide)
CONDITION_DETAILS: both partners purified
pKd: −log10 of the molar value. Ends that are not written are not given here. 5(6)‑carboxyfluorescein = 5(6)-carboxyfluorescein on the N-terminus
VALUE_KIND: pKd

1. {5(6)‑carboxyfluorescein}-RSPESVAFPMFQSHWYSG (phage-selected peptide 3 with its four cysteines replaced by serines; Synthesised on rink amide AM resin, so a C-terminal amide is likely (surmised); also called peptide 3 (linear; all four cysteines replaced with serines); source: synthetic peptide (Fmoc solid-phase synthesis, HPLC purified)) [linear peptide 3] ... 7.59
